- Test system: 5-HT3 receptor (Cavia porcellus)
- procedure text: Potency of partial agonist action given by concentration producing 50% of individual maximal contraction of isolated guinea pig ileum
readout type: pD2
I'd appreciate a reply containing only the number, no unit.

Given the entry "CN1CCCN(c2nc3cc(Cl)ccc3o2)CC1" , report its measured pD2. 7

Given the entry "Cc1cc(Cl)cc2nc(N3CCN(C)CC3)oc12" , report its measured pD2. 6.7

Given the entry "Cc1ccc2oc(N3CCN(C)CC3)nc2c1" , report its measured pD2. 6

Given the entry "Cc1cccc2nc(N3CCN(C)CC3)oc12" , report its measured pD2. 5.46

Given the entry "Cc1cc2nc(N3CCN(C)CC3)oc2cc1C" , report its measured pD2. 6.16

Given the entry "CN1CCN(c2nc3cc(Cl)cc(Cl)c3o2)CC1" , report its measured pD2. 6.51

Given the entry "CN1CCN(c2nc3cc(Cl)ccc3o2)CC1" , report its measured pD2. 6.07

Given the entry "Cc1c(Cl)cc2nc(N3CCN(C)CC3)oc2c1Cl" , report its measured pD2. 6.64

Given the entry "Cc1cc(Cl)cc2nc(N3CCCN(C)CC3)oc12" , report its measured pD2. 7.76

Given the entry "CN1CCCN(c2nc3ccccc3o2)CC1" , report its measured pD2. 6.03

Given the entry "Cc1ccc2nc(N3CCN(C)CC3)oc2c1" , report its measured pD2. 5.15

Given the entry "CN1CCN(c2nc3cc(Br)ccc3o2)CC1" , report its measured pD2. 6.21

Given the entry "c1ccc2oc(C3CCNCC3)nc2c1" , report its measured pD2. 5.59

Given the entry "Cc1cc(C)c2oc(N3CCN(C)CC3)nc2c1" , report its measured pD2. 6.32

Given the entry "CN1CCN(c2nc3cc(F)ccc3o2)CC1" , report its measured pD2. 5.57

Given the entry "Cc1cc2oc(N3CCN(C)CC3)nc2cc1Cl" , report its measured pD2. 6.28

Given the entry "CN1CCN(c2nc3ccccc3o2)CC1" , report its measured pD2. 5.01

Given the entry "Cc1c(Cl)cc2nc(N3CCN(C)CC3)oc2c1C" , report its measured pD2. 6.67

---

- target of assay: Serotonin 3 (5-HT3) receptor (Rattus norvegicus, UniProt P35563+Q9JJ16)
- Sequence (P35563 whole entry): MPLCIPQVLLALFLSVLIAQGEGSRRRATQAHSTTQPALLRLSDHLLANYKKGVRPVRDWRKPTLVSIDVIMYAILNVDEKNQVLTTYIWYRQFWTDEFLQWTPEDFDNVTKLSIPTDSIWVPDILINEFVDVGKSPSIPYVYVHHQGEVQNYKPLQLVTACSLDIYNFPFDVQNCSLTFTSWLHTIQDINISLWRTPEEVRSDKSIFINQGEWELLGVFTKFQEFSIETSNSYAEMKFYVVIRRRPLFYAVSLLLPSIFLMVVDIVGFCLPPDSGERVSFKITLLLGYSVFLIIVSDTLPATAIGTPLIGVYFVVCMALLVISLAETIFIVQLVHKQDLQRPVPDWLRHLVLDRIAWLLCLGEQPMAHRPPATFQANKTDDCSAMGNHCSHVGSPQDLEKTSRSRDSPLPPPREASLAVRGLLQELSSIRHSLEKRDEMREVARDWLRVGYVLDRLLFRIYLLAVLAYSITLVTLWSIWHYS
- Sequence (Q9JJ16 whole entry): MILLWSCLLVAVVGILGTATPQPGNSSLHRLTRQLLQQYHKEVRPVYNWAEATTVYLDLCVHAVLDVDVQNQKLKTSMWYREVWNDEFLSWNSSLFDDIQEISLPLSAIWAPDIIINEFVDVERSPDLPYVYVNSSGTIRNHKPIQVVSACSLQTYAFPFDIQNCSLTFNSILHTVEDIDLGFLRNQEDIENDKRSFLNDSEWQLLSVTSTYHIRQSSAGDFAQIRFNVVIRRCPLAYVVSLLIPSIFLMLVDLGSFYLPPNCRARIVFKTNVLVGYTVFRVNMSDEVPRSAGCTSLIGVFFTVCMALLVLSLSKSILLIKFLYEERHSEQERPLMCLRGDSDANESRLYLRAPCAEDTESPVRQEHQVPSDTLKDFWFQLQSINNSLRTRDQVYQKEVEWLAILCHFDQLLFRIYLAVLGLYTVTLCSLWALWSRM
- procedure text: Binding affinity for 5-hydroxytryptamine 3 receptor in rat cerebral cortex, determined by displacement of [3H]GR-65630
- Assay type: tissue-based
Use 1 (yes) when the recorded inhibition at 10^-7 M is no lower than 90%; use 0 (no) when it is lower.

Hi team, for "Cc1cc2nc(N3CCN(C)CC3)oc2cc1C" , is the recorded inhibition at 10^-7 M at or above 90%? 0 (no)

Hi team, for "CN1CCN(c2nc3cc(C(F)(F)F)ccc3o2)CC1" , is the recorded inhibition at 10^-7 M at or above 90%? 0 (no)

Hi team, for "CN1CCN(c2nc3cc(Cl)ccc3o2)CC1" , is the recorded inhibition at 10^-7 M at or above 90%? 1 (yes)

Hi team, for "Cc1cc(Cl)cc2nc(N3CCCN(C)CC3)oc12" , is the recorded inhibition at 10^-7 M at or above 90%? 1 (yes)

Hi team, for "Cc1cccc2nc(N3CCN(C)CC3)oc12" , is the recorded inhibition at 10^-7 M at or above 90%? 0 (no)

Hi team, for "Cc1cc(Cl)cc2nc(N3CCN(C)CC3)oc12" , is the recorded inhibition at 10^-7 M at or above 90%? 0 (no)

Hi team, for "c1ccc2oc(C3CCNCC3)nc2c1" , is the recorded inhibition at 10^-7 M at or above 90%? 0 (no)

Hi team, for "Cc1c(Cl)cc2nc(N3CCN(C)CC3)oc2c1Cl" , is the recorded inhibition at 10^-7 M at or above 90%? 1 (yes)

Hi team, for "c1ccc2oc(N3CCNCC3)nc2c1" , is the recorded inhibition at 10^-7 M at or above 90%? 0 (no)

Hi team, for "CN1CCN(c2nc3ccccc3o2)CC1" , is the recorded inhibition at 10^-7 M at or above 90%? 0 (no)

Hi team, for "CN1CCCN(c2nc3ccccc3o2)CC1" , is the recorded inhibition at 10^-7 M at or above 90%? 0 (no)

Hi team, for "Cc1cc2oc(N3CCN(C)CC3)nc2cc1Cl" , is the recorded inhibition at 10^-7 M at or above 90%? 1 (yes)

Hi team, for "Cc1cccc2oc(N3CCN(C)CC3)nc12" , is the recorded inhibition at 10^-7 M at or above 90%? 0 (no)

Hi team, for "CN1CCN(c2nc3cc(Cl)cc(Cl)c3o2)CC1" , is the recorded inhibition at 10^-7 M at or above 90%? 0 (no)

Hi team, for "CN1CCCN(c2nc3cc(Cl)ccc3o2)CC1" , is the recorded inhibition at 10^-7 M at or above 90%? 0 (no)

Hi team, for "CCc1ccc2oc(N3CCN(C)CC3)nc2c1" , is the recorded inhibition at 10^-7 M at or above 90%? 0 (no)

Hi team, for "Cc1ccc2nc(N3CCN(C)CC3)oc2c1" , is the recorded inhibition at 10^-7 M at or above 90%? 0 (no)

Hi team, for "Cc1cc(C)c2oc(N3CCN(C)CC3)nc2c1" , is the recorded inhibition at 10^-7 M at or above 90%? 1 (yes)

Hi team, for "Cc1c(Cl)cc2nc(N3CCN(C)CC3)oc2c1C" , is the recorded inhibition at 10^-7 M at or above 90%? 1 (yes)

Hi team, for "Cc1ccc2oc(N3CCN(C)CC3)nc2c1" , is the recorded inhibition at 10^-7 M at or above 90%? 0 (no)
